- Experimental target: HLA-A*02:01 (Homo sapiens, UniProt P04439, D140Y/D185E/D98H/E176V/E277Q/G131W/G231S/I119V/I121R/I166T/I218V/L300P/L318F/N151K/N90K/P208A/P217A/Q86G/Q94H/R138H/R169H/T345S)
- Assay protocol: MHC binding assay (UV-ligand exchange, beta2m ELISA)
- Assay context: binding to HLA-A*02:01, β2m ELISA
Measurement type: Peptide exchange (MHC class I binding score, peptide exchange yield)

Before answering, review these 8 worked examples.
Substance	Assay result
33 (TLDRNSLYV; listed as Homo sapiens) [compound 33]	++ (≧20% = ++)
119 (SLIEESEEL; listed as Homo sapiens) [compound 119]	++ (≧20% = ++)
163 (GLEERLYTA; listed as Homo sapiens) [compound 163]	++ (≧20% = ++)
280 (HLWGHALFL; listed as Homo sapiens) [compound 280]	+++ (≧50 = +++)
237 (ALLEQTGDMSL; listed as Homo sapiens) [compound 237]	+++ (≧50 = +++)
54 (YLVPGLVAA; listed as Homo sapiens) [compound 54]	+++ (≧50 = +++)
28 (IKVTDPQLLEL; listed as Homo sapiens) [compound 28]	++ (≧20% = ++)
285 (MLLDTVQKV; listed as Homo sapiens) [compound 285]	+++ (≧50 = +++)

// moving on: another record for Peptide exchange (MHC class I binding score, peptide exchange yield)
# Peptide exchange (MHC class I binding score, peptide exchange yield) lookup, item 67 (FLIENLLAA; listed as Homo sapiens) [compound 67]
+++ (≧50 = +++)

----------
- Experimental target: HLA-A*02:01 (Homo sapiens, UniProt P04439, D140Y/D185E/D98H/E176V/E277Q/G131W/G231S/I119V/I121R/I166T/I218V/L300P/L318F/N151K/N90K/P208A/P217A/Q86G/Q94H/R138H/R169H/T345S)
- Assay protocol: MHC binding assay (UV-ligand exchange, beta2m ELISA)
- Assay context: binding to HLA-A*02:01, β2m ELISA
Measurement type: Peptide exchange (MHC class I binding score, peptide exchange yield)

Before answering, review these 5 worked examples.
Substance	Assay result
182 (GLQDGFQITV; listed as Homo sapiens) [compound 182]	+++ (≧50 = +++)
251 (LLWGNLPEI; listed as Homo sapiens) [compound 251]	+++ (≧50 = +++)
185 (TLYQGLPAEV; listed as Homo sapiens) [compound 185]	++ (≧20% = ++)
124 (ALLLRLFTI; listed as Homo sapiens) [compound 124]	++ (≧20% = ++)
140 (FLDSQITTV; listed as Homo sapiens) [compound 140]	+++ (≧50 = +++)

For the 2 substances below, give their Peptide exchange (MHC class I binding score, peptide exchange yield) values.
1. 98 (FVQEKIPEL; listed as Homo sapiens) [compound 98]
2. 265 (FLLDKPQDLSI; listed as Homo sapiens) [compound 265]

+++ (≧50 = +++)
+++ (≧50 = +++)

----------
- Experimental target: HLA-A*02:01 (Homo sapiens, UniProt P04439, D140Y/D185E/D98H/E176V/E277Q/G131W/G231S/I119V/I121R/I166T/I218V/L300P/L318F/N151K/N90K/P208A/P217A/Q86G/Q94H/R138H/R169H/T345S)
- Assay protocol: MHC binding assay (UV-ligand exchange, beta2m ELISA)
- Assay context: binding to HLA-A*02:01, β2m ELISA
Measurement type: Peptide exchange (MHC class I binding score, peptide exchange yield)

Before answering, review these 10 worked examples.
Substance	Assay result
134 (SLYKSFLQL; listed as Homo sapiens) [compound 134]	++ (≧20% = ++)
277 (KLQEELNKV; listed as Homo sapiens) [compound 277]	+++ (≧50 = +++)
40 (KIWEELSVLEV; listed as Homo sapiens) [compound 40]	+++ (≧50 = +++)
235 (SLLNQPKAV; listed as Homo sapiens) [compound 235]	++ (≧20% = ++)
225 (FLPQPVPLSV; listed as Homo sapiens) [compound 225]	+++ (≧50 = +++)
26 (VLDGKVAVV; listed as Homo sapiens) [compound 26]	+++ (≧50 = +++)
276 (RMPTVLQCV; listed as Homo sapiens) [compound 276]	+++ (≧50 = +++)
68 (QLMNLIRSV; listed as Homo sapiens) [compound 68]	+++ (≧50 = +++)
199 (SVADLAHVL; listed as Homo sapiens) [compound 199]	++ (≧20% = ++)
194 (KLLEEVQLL; listed as Homo sapiens) [compound 194]	++ (≧20% = ++)

For the 4 substances below, give their Peptide exchange (MHC class I binding score, peptide exchange yield) values.
1. 136 (LLWDAPAKC; listed as Homo sapiens) [compound 136]
2. 88 (LLLPLELSLA; listed as Homo sapiens) [compound 88]
3. 101 (SLLEVNEASSV; listed as Homo sapiens) [compound 101]
4. 130 (QLYGSAITL; listed as Homo sapiens) [compound 130]

1: +++ (≧50 = +++); 2: +++ (≧50 = +++); 3: +++ (≧50 = +++); 4: +++ (≧50 = +++)
